# Tested on: wheat germ agglutinin (Triticum aestivum), Alexa647-labelled
# Assay method text: wheat germ agglutinin binders on compound microarrays, profiling panel, artefact control for SMM control-protein annotation, biochemical, small-molecule microarray, 635/667 nm fluorescence (AID 1140);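 note: score merges 667 nm feature emission with signal to noise over triplicate slides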
# Condition summary: WGA-A647 binding, 635 nm fluorescence, higher = more signal
Metric name: composite z-score
Hey, just send me the number, nothing else.

Sample O=C1c2ccccc2[C@@]2(Cc3ccccc3N(Cc3ccccc3)C2=O)[C@H](c2ccc(CO)cc2)N1Cc1ccccc1 — what was its composite z-score?
0.168

Sample C=C(COC)C(=O)CC[C@@H](OC(=O)c1cccnc1)c1cccc(OCCO)c1 — what was its composite z-score?
0.981

Sample C=CCC(OC(C)=O)[C@@H]1[C@@H](N(Cc2ccc(-c3cccc(C(F)(F)F)c3)o2)C(=O)c2cccc3ccccc23)c2cc(OCCCO)ccc2N1C(=O)c1ccc2ccccc2n1 (stereo not given in full) — what was its composite z-score?
-0.0681

Sample CCCC[C@@H]1C[C@H]1[C@@H](NC(=O)Cc1ccccc1)c1ccc(Cl)cc1 — what was its composite z-score?
1.25

Sample C[N+](C)(C)CCCC[C@@H]1NC(=O)[C@H]2C[C@@H](C(=O)NCCCCCNC(=O)CS)[C@@H](c3ccc(O)cc3)N2C1=O — what was its composite z-score?
0.215

Sample C=CCN1C(=O)[C@]2(O[C@H](CCO)[C@@H]([Si](C)(C)c3ccc(OC)cc3)[C@@H]2C)c2ccccc21 — what was its composite z-score?
0.134

Sample CCOC(=O)C[C@H]1[C@H](OC(=O)c2cc3ccccc3oc2=O)[C@@H](NC(=O)C2CCCCC2)c2cc(OCCCO)ccc2N1C(=O)Cc1ccc(OC)cc1 — what was its composite z-score?
0.507

Sample O=C1OCCC=C[C@H]2OC34C=CCN(c5ccc(Cl)cc5)C(=O)[C@H]3N(CCO)C(=O)[C@@H]4C12 (stereo not given in full) — what was its composite z-score?
-0.524

Sample CC(C)(C)N1CC=CC23O[C@@H]4/C=C\CCCOC(=O)C4[C@H]2C(=O)N(CCCCCCO)[C@@H]3C1=O (stereo not given in full) — what was its composite z-score?
0.0119

Sample CCOC(=O)C[C@H]1[C@H](OC(=O)c2ccc(-c3ccccc3)cc2)[C@@H](NC(=O)CC(C)C)c2cc(OCCCO)ccc2N1C(=O)Cc1ccc(OC)cc1 — what was its composite z-score?
0.535

Sample COC(=O)[C@@]1(Cc2ccc(F)cc2)[C@H]2c3cc(C(=O)N(C)C)n(CCO)c3C[C@H]2CN1C(=O)c1ccccc1 — what was its composite z-score?
0.718

Sample O=C(NCC(F)(F)F)[C@@H]1c2ccccc2C(=O)N(CC23CC4CC(CC(C4)C2)C3)[C@H]1c1ccc(CO)cc1 — what was its composite z-score?
0.393

Sample CCCC[C@@H](O)C1=C(COC)Cn2c(=O)n(-c3ccccc3)c(=O)n2[C@H]1CO — what was its composite z-score?
0.858

Sample CCCCC(=C=CC[C@H](O)c1ccc(OCCO)cc1)C[C@H](O)c1ccccn1 — what was its composite z-score?
0.266

Sample COCCOC(=O)N1C(=O)[C@@]2(c3cc(C#CCC(C(=O)OC)C(=O)OC)ccc31)[C@H](C(=O)N1CCCCCCC1)[C@H]1C(=O)O[C@H](c3ccccc3)[C@H](c3ccccc3)N1[C@@H]2c1ccccc1OCCO — what was its composite z-score?
1.46

---

# Assay system: Calmodulin-1 (Homo sapiens) (UniProt P0DP23)
# Assay method text: calcium-bound CALM1 binders on microarrays, profiling panel, artefact control for SMM control-protein annotation, biochemical, small-molecule microarray, Cy5-labelled CALM1, plus calcium (AID 1112);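 note: score merges spot fluorescence with signal to noise from triplicate slides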
# Condition summary: Cy5-CALM1 binding fluorescence, higher = more signal
Metric name: composite z-score
Hey, just send me the number, nothing else.

Sample COc1ccccc1CN1C(=O)c2ccccc2[C@@H](C(=O)NCCCN(C)C)[C@@H]1c1ccc(CO)cc1 — what was its composite z-score?
-0.298

Sample CC(C)c1ccc(NN2C(C(O)C(C)C)C=CC3C(=O)N(c4ccccc4)C(=O)C32)cc1 (stereo not given) — what was its composite z-score?
0.721

Sample CCOC(=O)C[C@H]1[C@H](OC(=O)c2ccc(-c3ccccc3)cc2)[C@@H](NC(=O)c2ccc3ccccc3c2)c2cc(OCCCO)ccc2N1C(=O)c1ccccc1 — what was its composite z-score?
0.116

Sample CN(C)CCCCNC(=O)[C@H]1C[C@H]2C(=O)NCC(=O)N2[C@H]1c1cccc(OCCO)c1 — what was its composite z-score?
0.706

Sample CC(C)CNC(=O)[C@@H]1c2ccccc2C(=O)N(C2Cc3ccccc3C2)[C@H]1c1ccc(CO)cc1 — what was its composite z-score?
-0.616

Sample COc1cc2c(cc1O)C(c1ccc(CN3CCCC3)cc1)N(Cc1ccc([N+](=O)[O-])o1)CC2 (stereo not given) — what was its composite z-score?
0.958

Sample CCOC(=O)C1=C[C@@H](C(C)(C)C)N(S(=O)(=O)c2ccc(C)cc2)[C@H]1c1ccccc1Cl — what was its composite z-score?
0.84

Sample CN1C(=O)C2C=CC(C(O)c3ccc(-c4ccccc4)s3)N(Nc3ccccc3)C2C1=O (stereo not given) — what was its composite z-score?
0.186

Sample COc1cc2c(cc1O)C(C1CC1)N(Cc1ccc([N+](=O)[O-])o1)CC2 (stereo not given) — what was its composite z-score?
1.21

Sample COCCCNC(=O)[C@@]1(Sc2ccc(C)cc2)CC(=O)N(C2CCCCC2)[C@@H]1c1ccc(CO)cc1I — what was its composite z-score?
0.565

Sample CC(=O)c1ccc(C(O)C2C=CC3C(=O)NC(=O)C3N2Nc2ccc(Cl)cc2Cl)cc1 (stereo not given) — what was its composite z-score?
0.468

Sample CN1C(=O)[C@]2(CCS(=O)(=O)c3ccccc3)N=C(c3ccc(OCCCO)cc3)O[C@@H]2c2ccccc21 — what was its composite z-score?
-0.545

Sample COC(=O)c1ccc([C@H](NC(=O)c2ccccc2)[C@]2(C)C[C@H]2C2CCCCC2)cc1 — what was its composite z-score?
1.47

Sample CCC[C@@H]1C=C(C(=O)OCC)[C@H](c2ccccc2)N1S(=O)(=O)c1ccc(C)cc1 — what was its composite z-score?
0.409

Sample CN1C(=O)[C@]2(CCC(=O)OC(C)(C)C)N=C(c3ccc(OCCCO)cc3)O[C@@H]2c2ccccc21 — what was its composite z-score?
-0.0006

---

# Test system: Chordin-like protein 2 (CHRDL2)
# Assay method text: CHRDL2 small-molecule binders, primary screen, biochemical, small-molecule microarray, 635 nm fluorescence (AID 1126);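 note: printed compound slides probed with Chrdl2 protein at 4 µg/mL for 1 h at 4 C; score merges 667 nm emission intensity with signal to noise over three replicate slides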
# Condition summary: small-molecule microarray binding, fluorescence 635 nm; higher = more signal
So I've got a bunch of molecules here, and I need their composite z-score values.
Hey, just send me the number, nothing else.

Sample COCCOC(=O)N1C(=O)[C@@]2(c3cc(C#CCC(C(=O)OC)C(=O)OC)ccc31)[C@H](C(=O)N1CCCCCCC1)[C@H]1C(=O)O[C@H](c3ccccc3)[C@H](c3ccccc3)N1[C@@H]2c1ccccc1OCCO — what was its composite z-score?
1.44

Sample CC(C)C(=C=CC[C@@H](O)c1ccc(OCCO)cc1)CCO — what was its composite z-score?
0.184

Sample O=C1c2ccccc2[C@@]2(Cc3ccccc3N(Cc3ccccc3)C2=O)[C@H](c2ccc(CO)cc2)N1Cc1ccccc1 — what was its composite z-score?
-0.845

Sample CC(C)C[C@@H]1NC(=O)[C@@]23C(=O)N[C@@H](Cc4ccccc4)C2[C@H](C)[C@@]2(C)O[C@H]2C3/C=C/C/C=C\CNC(=O)[C@@H](CC(C)C)NC1=O (some centres undefined) — what was its composite z-score?
0.732

Sample CCCCC(O)C1C=CC2C(=O)NC(=O)C2N1Nc1ccccn1 (centres undefined) — what was its composite z-score?
-0.0858

Sample CC1(C)OC[C@@]23C=C(Br)[C@@H](C[C@H]12)[C@@]1(CO1)C3=O — what was its composite z-score?
0.467

Sample CCCC[C@@H]1C[C@H]1[C@@H](NC(=O)Cc1ccccc1)c1ccc(Cl)cc1 — what was its composite z-score?
-1.01

Sample COC(=O)Cn1c(C(=O)N(C)C)cc2c1C[C@H]1CN(C(=O)c3ccccc3)[C@@](Cc3ccc(OC)cc3)(C(=O)OC)[C@@H]21 — what was its composite z-score?
-0.108

Sample C=CCC(OC(C)=O)[C@@H]1[C@@H](N(Cc2cc3ccccc3o2)C(=O)c2cccc3ccccc23)c2cc(OCCCO)ccc2N1C(=O)c1ccc2ccccc2c1 (some centres undefined) — what was its composite z-score?
0.556

Sample COCCOC(=O)N1C(=O)[C@@]2(c3cc(C#Cc4ccc(OC)cc4)ccc31)[C@H](c1ccc(OCCO)cc1)N1[C@H](c3ccccc3)[C@H](c3ccccc3)OC(=O)[C@H]1[C@@H]2C(=O)N1CCCCCCC1 — what was its composite z-score?
1.31

Sample Cc1c(NC(=O)/C(C#N)=C/c2ccc(Cl)cc2)c(=O)n(-c2ccccc2)n1C — what was its composite z-score?
0.122

Sample CC(C)(C)N1CC=CC23O[C@@H]4/C=C\CCCOC(=O)C4[C@H]2C(=O)N(CCCCCCO)[C@@H]3C1=O (some centres undefined) — what was its composite z-score?
-1.25

Sample CCOC(=O)C1=CC[C@@H](c2ccccc2)N(S(=O)(=O)C[Si](C)(C)C)[C@H]1c1ccccc1 — what was its composite z-score?
0.302

Sample COCCOC(=O)N1C(=O)[C@@]2(c3cc(C#CCC(C(=O)OC)C(=O)OC)ccc31)[C@H](C(=O)N1CCc3cc(OC)c(OC)cc3C1)[C@H]1C(=O)O[C@H](c3ccccc3)[C@H](c3ccccc3)N1[C@@H]2c1ccc(O)cc1 — what was its composite z-score?
1.05
